Attribution: patent US20190309059A1

Measured mean fluorescence intensity, listed per entry for reference.
target: his-labeled human IL-13 (immunogen A) (human) (UniProt P35225); assay: FACS blocking, biotin-IL-13 on IL-13Ra2 HEK293 cells; antibody at 0.01 nM
Write the number on its own, no unit after it.

Below, 4 binders whose answers are already recorded.
BINDER	VAL
c70F10A10 (mouse-human chimeric IL-13 antibody) (antibody, V domains shown) VH: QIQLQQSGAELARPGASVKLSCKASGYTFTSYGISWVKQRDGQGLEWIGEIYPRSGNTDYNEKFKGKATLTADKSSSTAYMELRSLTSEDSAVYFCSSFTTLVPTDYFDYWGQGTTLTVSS VL: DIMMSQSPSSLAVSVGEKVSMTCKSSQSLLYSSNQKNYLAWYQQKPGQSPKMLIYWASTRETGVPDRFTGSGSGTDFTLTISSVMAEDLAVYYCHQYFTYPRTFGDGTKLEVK	97.6
c28A2E11 (mouse-human chimeric IL-13 antibody) (antibody, V domains shown) VH: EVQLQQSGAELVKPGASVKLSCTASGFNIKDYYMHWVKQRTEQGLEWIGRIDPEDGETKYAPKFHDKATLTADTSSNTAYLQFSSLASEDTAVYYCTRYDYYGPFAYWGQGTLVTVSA VL: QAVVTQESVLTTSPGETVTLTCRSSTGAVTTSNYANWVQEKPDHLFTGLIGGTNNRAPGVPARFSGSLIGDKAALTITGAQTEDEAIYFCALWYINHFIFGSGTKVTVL	99.1
70F10A10 (lead antibody, mouse hybridoma) (antibody, V domains shown) VH: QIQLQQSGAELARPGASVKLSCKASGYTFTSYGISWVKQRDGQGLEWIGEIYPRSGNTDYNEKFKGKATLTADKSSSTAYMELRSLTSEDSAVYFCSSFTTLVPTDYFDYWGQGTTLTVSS VL: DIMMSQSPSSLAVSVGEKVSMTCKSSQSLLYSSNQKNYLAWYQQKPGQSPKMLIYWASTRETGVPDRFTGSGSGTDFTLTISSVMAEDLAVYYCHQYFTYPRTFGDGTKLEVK	75.6
35E2C3 (lead antibody, mouse hybridoma) (antibody, V domains shown, Mouse monoclonal antibody purified from hybridoma supernatant on Protein G) VH: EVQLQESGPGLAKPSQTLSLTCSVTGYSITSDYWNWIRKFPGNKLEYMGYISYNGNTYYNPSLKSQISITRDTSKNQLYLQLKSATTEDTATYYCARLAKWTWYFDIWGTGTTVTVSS VL: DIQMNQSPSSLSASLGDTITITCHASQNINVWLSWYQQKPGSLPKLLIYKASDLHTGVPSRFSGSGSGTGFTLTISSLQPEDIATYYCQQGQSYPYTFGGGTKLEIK	74.3

Field: next binder
Supply mean fluorescence intensity value. Item: c29D9H8 (mouse-human chimeric IL-13 antibody) (antibody, V domains shown) VH: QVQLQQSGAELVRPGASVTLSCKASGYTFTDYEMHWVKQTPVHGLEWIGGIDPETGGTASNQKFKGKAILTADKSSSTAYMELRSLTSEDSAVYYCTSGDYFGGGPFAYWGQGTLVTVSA VL: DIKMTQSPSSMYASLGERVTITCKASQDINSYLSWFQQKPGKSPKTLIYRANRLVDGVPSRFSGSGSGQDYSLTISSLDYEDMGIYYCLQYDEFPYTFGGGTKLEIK
95.9
